- target: mTOR (Homo sapiens, UniProt P42345)
- method-notes: mTOR enzyme assay (DELFIA format, His6-S6K substrate)
- Assay type: biochemical
- condition-context: read-out: mTOR Kinase Median IC50
Threshold check on IC50: strictly below 10 nM is Met; on or above 10 nM is Not met.

Answered cases to consult:
[[record]]
compound = "CNC(=O)Nc1ccc2c(c1)C(=O)/C(=C/c1cn(C)c3nccc(N4CC5CCC(C4)O5)c13)O2"
discrete_label = "Met"

[[record]]
compound = "Cn1cc(/C=C2\\Oc3ccc(NC(=O)Nc4cccnc4)cc3C2=O)c2c(N3CCC(C(=O)Nc4cccnc4)CC3)ccnc21"
discrete_label = "Not met"

[[record]]
compound = "CON(C)C(=O)c1ccc(-c2ccnc3c2c(/C=C2\\Oc4cccc(O)c4C2=O)cn3C)cc1"
discrete_label = "Met"

[[record]]
compound = "CN(C)C(=O)C1CCN(c2ccnc3c2c(/C=C2\\Oc4ccc(NC(=O)Nc5ccc(N6CCOCC6)cc5)cc4C2=O)cn3C)CC1"
discrete_label = "Not met"

[[record]]
compound = "Cn1cc(/C=C2\\Oc3cc(O)cc(O)c3C2=O)c2c(N3CCC(O)CC3)ccnc21"
discrete_label = "Met"

[[record]]
compound = "COCCNC(=O)C1CCN(c2ccnc3c2c(/C=C2\\Oc4ccc(NC(=O)Nc5cccnc5)cc4C2=O)cn3C)CC1"
discrete_label = "Met"


# TODO verify IC50 < 10 nM strictly for this compound: Cn1cc(/C=C2\Oc3cc(O)cc(O)c3C2=O)c2c(N3CCOCC3)ccnc21 Met

Regarding C[C@@H]1CN(C(=O)c2ccc(-c3ccnc4c3c(/C=C3\Oc5cccc(O)c5C3=O)cn4C)cc2)C[C@H](C)O1 , kindly confirm whether its IC50 is beneath 10 nM. Met

Confirm or reject: IC50 of CN1CCN(NC(=O)Nc2ccc3c(c2)C(=O)/C(=C/c2cn(C)c4nccc(N5CCC(C(=O)N(C)C)CC5)c24)O3)CC1 lies strictly below 10 nM Not met

----------
- target: UniProt P42345
- method-notes: mTOR enzyme assay (DELFIA format, His6-S6K substrate)
- Format: biochemical
- condition-context: read-out: mTOR Kinase Median IC50
pIC50: −log10 of the molar value.
Lab note: anything with pIC50 at or over 7 counts as 1 (yes); the rest go in 0 (no).

Please review the entries below; each comes with its answer.
[[record]]
molecule = "CN(C)C(=O)C1CCN(c2ccnc3c2c(/C=C2\\Oc4ccc(NC(=O)Nc5ccc(OC6CCOCC6)nc5)cc4C2=O)cn3C)CC1"
discrete_label = "1 (yes)"

[[record]]
molecule = "Cn1cc(/C=C2\\Oc3ccc(NC(=O)Nc4ccncc4)cc3C2=O)c2c(N3CC4CCC(C3)O4)ccnc21"
discrete_label = "1 (yes)"

[[record]]
molecule = "CN(C)CCCN1CCN(c2ccnc3c2c(/C=C2\\Oc4cccc(O)c4C2=O)cn3C)CC1"
discrete_label = "1 (yes)"

[[record]]
molecule = "CN(C)C(=O)c1ccccc1-c1ccnc2c1c(/C=C1\\Oc3cccc(O)c3C1=O)cn2C"
discrete_label = "0 (no)"

[[record]]
molecule = "Cn1cc(/C=C2\\Oc3cc(O)cc(O)c3C2=O)c2c(-c3ccc(S(C)(=O)=O)cc3)ccnc21"
discrete_label = "1 (yes)"


Test whether the molecule COC1CCN(C(=O)C2CCN(c3ccnc4c3c(/C=C3\Oc5ccc(NC(=O)Nc6cccnc6)cc5C3=O)cn4C)CC2)C1 (stereo not shown) records pIC50 of 7 or higher. 1 (yes)

----------
Below are pIC50 values recorded for PI3Kγ (Homo sapiens, UniProt P48736).
Conceptually, pIC50 converts a concentration in mol/L into minus its log10.

Solved entries (count: 5):
[[record]]
compound = "COCCN(C)CCCNC(=O)Nc1ccc2c(c1)C(=O)/C(=C/c1cn(C)c3nccc(N4CC5CCC(C4)O5)c13)O2 [Compound 242]"
target = "PI3Kγ (Homo sapiens, UniProt P48736)"
reported_measurement = 6.11

[[record]]
compound = "Cn1cc(C=C2Oc3cc(O)cc(O)c3C2=O)c2cccnc21 [Compound 1]"
target = "PI3Kγ (Homo sapiens, UniProt P48736)"
reported_measurement = 6.77

[[record]]
compound = "Cn1cc(/C=C2\\Oc3cc(O)cc(O)c3C2=O)c2c(-c3ccc(Cl)nc3)ccnc21 [Compound 63]"
target = "PI3Kγ (Homo sapiens, UniProt P48736)"
reported_measurement = 7.62

[[record]]
compound = "CC1CN(C(=O)C2CCN(c3ccnc4c3c(/C=C3\\Oc5ccc(NC(=O)Nc6cccnc6)cc5C3=O)cn4C)CC2)CC(C)O1 (stereo not drawn) [Compound 265]"
target = "PI3Kγ (Homo sapiens, UniProt P48736)"
reported_measurement = 5.93

[[record]]
compound = "CN1CCN(c2ccnc3c2c(/C=C2\\Oc4cc(O)cc(O)c4C2=O)cn3C)CC1 [Compound 44]"
target = "PI3Kγ (Homo sapiens, UniProt P48736)"
reported_measurement = 6.70


Look at this compound and give its reported pIC50. Cn1cc(/C=C2\Oc3ccc(NC(=O)Nc4cccnc4)cc3C2=O)c2c(N3CCC(C(=O)Nc4ccncc4)CC3)ccnc21 [Compound 263] 5.09

----------
PI3Kγ (Homo sapiens, UniProt P48736) data, read-out pIC50
Sequence (P48736 whole entry, species assumed): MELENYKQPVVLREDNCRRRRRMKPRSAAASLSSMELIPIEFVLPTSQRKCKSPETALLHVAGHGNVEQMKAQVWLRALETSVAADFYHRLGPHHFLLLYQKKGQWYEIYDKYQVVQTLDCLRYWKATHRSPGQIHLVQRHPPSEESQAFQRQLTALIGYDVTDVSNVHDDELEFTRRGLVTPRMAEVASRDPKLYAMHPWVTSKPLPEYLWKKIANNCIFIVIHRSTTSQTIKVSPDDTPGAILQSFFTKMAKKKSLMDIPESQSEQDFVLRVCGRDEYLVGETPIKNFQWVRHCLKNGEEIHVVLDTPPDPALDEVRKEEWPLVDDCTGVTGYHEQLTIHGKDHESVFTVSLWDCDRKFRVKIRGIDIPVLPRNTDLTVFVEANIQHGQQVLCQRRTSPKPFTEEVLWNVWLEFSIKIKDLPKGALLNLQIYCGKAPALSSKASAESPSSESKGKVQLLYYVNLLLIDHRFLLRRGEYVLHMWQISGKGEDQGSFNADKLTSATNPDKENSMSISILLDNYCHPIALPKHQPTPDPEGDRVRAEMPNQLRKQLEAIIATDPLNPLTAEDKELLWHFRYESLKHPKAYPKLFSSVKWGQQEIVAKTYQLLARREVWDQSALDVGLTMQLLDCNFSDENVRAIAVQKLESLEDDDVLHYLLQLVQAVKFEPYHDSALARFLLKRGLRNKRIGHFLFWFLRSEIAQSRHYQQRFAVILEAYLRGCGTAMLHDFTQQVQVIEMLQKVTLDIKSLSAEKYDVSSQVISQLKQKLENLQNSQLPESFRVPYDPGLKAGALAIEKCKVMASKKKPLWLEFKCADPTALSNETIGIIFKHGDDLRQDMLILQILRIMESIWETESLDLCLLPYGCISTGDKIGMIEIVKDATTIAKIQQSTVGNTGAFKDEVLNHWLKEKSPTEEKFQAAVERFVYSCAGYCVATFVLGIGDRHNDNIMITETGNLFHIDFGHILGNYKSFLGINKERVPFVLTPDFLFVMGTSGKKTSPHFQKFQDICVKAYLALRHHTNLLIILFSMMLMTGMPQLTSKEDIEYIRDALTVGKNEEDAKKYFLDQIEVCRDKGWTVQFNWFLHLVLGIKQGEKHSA
Give only the number. pIC50 is defined as minus log10 of concentration in molar units.

[[record]]
molecular_string = "CN(C)CCCN1CCN(c2ccnc3c2c(/C=C2\\Oc4cccc(O)c4C2=O)cn3C)CC1"
value_type = "pIC50"
reported_measurement = 6.10

[[record]]
molecular_string = "Cn1cc(/C=C2\\Oc3ccc(NC(=O)Nc4cccnc4)cc3C2=O)c2c(N3CC4CNCC(C3)O4)ccnc21"
value_type = "pIC50"
reported_measurement = 6.06

[[record]]
molecular_string = "CN1CCN(C(=O)c2ccc(-c3ccnc4c3c(/C=C3\\Oc5cccc(O)c5C3=O)cn4C)cc2)CC1"
value_type = "pIC50"
reported_measurement = 6.74

[[record]]
molecular_string = "Cn1cc(/C=C2\\Oc3cc(O)cc(O)c3C2=O)c2c(-c3cccc(C(=O)N4CCCC4)c3)ccnc21"
value_type = "pIC50"
reported_measurement = 7.31


Provide the documented pIC50 with PI3Kγ (Homo sapiens, UniProt P48736) as the system for CN(C(=O)C1CCN(c2ccnc3c2c(C=C2Oc4ccc(NC(=O)Nc5cccnc5)cc4C2=O)cn3C)CC1)C1CCOCC1 5.14

So what pIC50 did Cn1cc(/C=C2\Oc3ccc(NC(=O)Nc4cccnc4)cc3C2=O)c2c(N3CCOC(C)(C)C3)ccnc21 get with PI3Kγ (Homo sapiens, UniProt P48736)? 5.95

----------
- target: mTOR (Homo sapiens)
- method-notes: mTOR enzyme assay (DELFIA format, His6-S6K substrate)
- Format: biochemical
- condition-context: read-out: mTOR Kinase Median IC50
value-type: IC50 (nM)
// note: answer is a bare numeric in nM

[[record]]
compound = "Cn1cc(/C=C2\\Oc3ccc(Br)cc3C2=O)c2c(N3CC4CCC(C3)O4)ccnc21"
reported_measurement = 35.5

[[record]]
compound = "Cn1cc(/C=C2\\Oc3cc(O)cc(O)c3C2=O)c2c(-c3ccc(C(=O)N4CCCC4)cc3)ccnc21"
reported_measurement = 0.2

[[record]]
compound = "CN(C(=O)C1CCN(c2ccnc3c2c(C=C2Oc4ccc(NC(=O)Nc5cccnc5)cc4C2=O)cn3C)CC1)[C@H]1CCNC1"
reported_measurement = 50

[[record]]
compound = "CN(C)C(=O)CN(C)C(=O)C1CCN(c2ccnc3c2c(C=C2Oc4ccc(NC(=O)Nc5cccnc5)cc4C2=O)cn3C)CC1"
reported_measurement = 7.7

[[record]]
compound = "Cn1cc(/C=C2\\Oc3ccc(NC(=O)Nc4cccnc4)cc3C2=O)c2c(N3CCC(C(=O)N4CC5CCC(C4)O5)CC3)ccnc21"
reported_measurement = 17


Item Cn1cc(/C=C2\Oc3cc(O)cc(O)c3C2=O)c2c(-c3ccc(NS(C)(=O)=O)cc3)ccnc21 has what recorded IC50? 0.3

Tell me the measured IC50 of Cn1cc(C=C2Oc3ccc(NC(=O)Nc4cccnc4)cc3C2=O)c2c(N3CCC(C(=O)NC4CCOCC4)CC3)ccnc21 , please. 10.2

Please look up its IC50: COCC1CN(C(=O)C2CCN(c3ccnc4c3c(/C=C3\Oc5cccc(O)c5C3=O)cn4C)CC2)CCO1 (centres unmarked) 3.8

----------
Test system PI3Kγ (Homo sapiens), IC50 listed for each of the compounds.
Enter your answer as a number in nM; do not include the unit.

Sample answers from the record:
[[record]]
compound = "CN1CCN(C(=O)C2CCN(c3ccnc4c3c(/C=C3\\Oc5ccc(NC(=O)Nc6cccnc6)cc5C3=O)cn4C)CC2)CC1"
target = "PI3Kγ (Homo sapiens)"
reported_measurement = 1250

[[record]]
compound = "Cn1cc(/C=C2\\Oc3ccc(NS(C)(=O)=O)cc3C2=O)c2c(-c3ccccc3)ccnc21"
target = "PI3Kγ (Homo sapiens)"
reported_measurement = 7430

[[record]]
compound = "Cn1cc(/C=C2\\Oc3cccc(O)c3C2=O)c2c(N3CC4CC3CO4)ccnc21 (stereo not shown)"
target = "PI3Kγ (Homo sapiens)"
reported_measurement = 88


Using the record for CN1CCN(CCNC(=O)Nc2ccc3c(c2)C(=O)/C(=C/c2cn(C)c4nccc(N5CC6CCC(C5)O6)c24)O3)CC1 , report its IC50. 472
